Attribution: ChEMBL document CHEMBL1145490

Exercise: state measured MIC for each of the compounds provided.
# Tested on: Haemophilus parasuis
# Assay protocol: Antimicrobial activity against Haemophilus parasuis BB 1020
# Type: functional
# Measurement context: Glaesserella parasuis

**Query** Give MIC for the following compound: `Cc1onc(-c2ccccc2)c1C(=O)N[C@@H]1C(=O)N2[C@@H]1SC(C)(C)[C@@H]2C(=O)O`
**Result** ≤ 0.25 µg/mL

**Query** Give MIC for the following compound: N[C@@H](C(=O)N[C@@H]1C(=O)N2C(C(=O)O)=C(Cl)CS[C@H]12)c1ccccc1 [CEFACLOR ANHYDROUS]
**Result** > 16 µg/mL

**Query** Give MIC for the following compound: `CO/N=C(\C(=O)N[C@@H]1C(=O)N2C(C(=O)O)=C(COC(C)=O)CS[C@H]12)c1csc(N)n1`
**Result** ≤ 0.03 µg/mL

**Query** Give MIC for the following compound: `CC1(C)S[C@@H]2[C@H](NC(=O)[C@H](N)c3ccc(O)cc3)C(=O)N2[C@H]1C(=O)O`
**Result** > 256 µg/mL
